Catalogue of binders with associated Kd
Target: IL-13 (Homo sapiens (Human), UniProt P35225 35-146, limits assumed)
Sequence (P35225 35-146 limits assumed): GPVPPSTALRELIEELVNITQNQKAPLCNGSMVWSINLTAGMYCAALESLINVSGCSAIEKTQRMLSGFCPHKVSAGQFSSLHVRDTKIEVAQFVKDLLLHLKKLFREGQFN
Assay: Biacore
Metric Name: Kd

binder="M480 (antibody, V domains shown) VH: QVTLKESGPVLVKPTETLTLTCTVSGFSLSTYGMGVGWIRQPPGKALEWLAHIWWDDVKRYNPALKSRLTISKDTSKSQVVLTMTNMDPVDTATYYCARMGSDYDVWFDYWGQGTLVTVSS VL: EIVLTQSPATLSLSPGERATLSCRASKSISKYLAWYQQKPGQAPRLLIYSGSTLQSGIPARFSGSGSGTDFTLTISSLEPEDFAVYYCQQQDSPYTFGQGTKLEIK" metric_name=Kd result="0.021 nM"
binder="M467 (antibody, V domains shown, anti-IL-13, human IgG1) VH: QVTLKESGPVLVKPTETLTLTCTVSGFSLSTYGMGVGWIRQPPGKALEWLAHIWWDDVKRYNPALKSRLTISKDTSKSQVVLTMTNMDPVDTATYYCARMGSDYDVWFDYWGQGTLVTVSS VL: EIVLTQSPATLSLSPGERATLSCRASKSISKYLAWYQQKPGQAPRLLIYSGSTLQSGIPARFSGSGSGTDFTLTISSLEPEDFAVYYCQQHSWAPYTFGQGTKLEIK" metric_name=Kd result="0.452 nM"
binder="M457 (antibody, V domains shown, anti-IL-13, human IgG1) VH: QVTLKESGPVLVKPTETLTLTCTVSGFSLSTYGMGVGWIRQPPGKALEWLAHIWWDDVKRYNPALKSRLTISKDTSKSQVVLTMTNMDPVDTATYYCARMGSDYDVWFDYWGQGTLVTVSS VL: EIVLTQSPATLSLSPGERATLSCRASKSISKYLAWYQQKPGQAPRLLIYSGSTLQSGIPARFSGSGSGTDFTLTISSLEPEDFAVYYCQQHDYAPYTFGQGTKLEIK" metric_name=Kd result="0.193 nM"
binder="M453 (antibody, V domains shown, anti-IL-13, human IgG1) VH: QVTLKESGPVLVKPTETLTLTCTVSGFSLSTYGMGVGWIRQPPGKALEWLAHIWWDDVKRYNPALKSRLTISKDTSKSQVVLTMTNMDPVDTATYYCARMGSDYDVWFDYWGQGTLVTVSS VL: EIVLTQSPATLSLSPGERATLSCRASKSISKYLAWYQQKPGQAPRLLIYSGSTLQSGIPARFSGSGSGTDFTLTISSLEPEDFAVYYCQQHDWGPYTFGQGTKLEIK" metric_name=Kd result="0.044 nM"
binder="M455 (antibody, V domains shown, anti-IL-13, human IgG1) VH: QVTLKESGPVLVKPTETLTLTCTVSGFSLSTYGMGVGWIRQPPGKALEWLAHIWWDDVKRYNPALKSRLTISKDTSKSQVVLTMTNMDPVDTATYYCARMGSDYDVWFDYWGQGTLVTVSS VL: EIVLTQSPATLSLSPGERATLSCRASKSISKYLAWYQQKPGQAPRLLIYSGSTLQSGIPARFSGSGSGTDFTLTISSLEPEDFAVYYCQQHNEAPYTFGQGTKLEIK" metric_name=Kd result="0.186 nM"
binder="H2L6 HFS variant (antibody, V domains shown, IgG1; also called IL13-62) VH: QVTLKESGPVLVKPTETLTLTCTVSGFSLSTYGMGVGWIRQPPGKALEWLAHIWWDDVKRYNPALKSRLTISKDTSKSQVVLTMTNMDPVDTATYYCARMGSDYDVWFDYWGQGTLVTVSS VL: EIVLTQSPATLSLSPGERATLSCRASKSISKYLAWYQQKPGQAPRLLIYSGSTLQSGIPARFSGSGSGTDFTLTISSLEPEDFAVYYCQQHNEYPYTFGQGTKLEIK" metric_name=Kd result="0.754 nM"
binder="M476 (antibody, V domains shown, anti-IL-13, human IgG1) VH: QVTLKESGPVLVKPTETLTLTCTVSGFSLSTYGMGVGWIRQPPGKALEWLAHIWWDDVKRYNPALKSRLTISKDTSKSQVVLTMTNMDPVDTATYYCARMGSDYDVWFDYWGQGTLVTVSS VL: EIVLTQSPATLSLSPGERATLSCRASKSISKYLAWYQQKPGQAPRLLIYSGSTLQSGIPARFSGSGSGTDFTLTISSLEPEDFAVYYCQQHSVGPYTFGQGTKLEIK" metric_name=Kd result="0.315 nM"
binder="M475 (antibody, V domains shown, anti-IL-13, human IgG1) VH: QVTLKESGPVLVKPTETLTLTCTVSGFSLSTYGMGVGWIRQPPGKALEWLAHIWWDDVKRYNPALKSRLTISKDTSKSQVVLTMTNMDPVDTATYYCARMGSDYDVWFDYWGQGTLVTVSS VL: EIVLTQSPATLSLSPGERATLSCRASKSISKYLAWYQQKPGQAPRLLIYSGSTLQSGIPARFSGSGSGTDFTLTISSLEPEDFAVYYCQQHLMGPYTFGQGTKLEIK" metric_name=Kd result="0.187 nM"
binder="M451 (antibody, V domains shown, anti-IL-13, human IgG1) VH: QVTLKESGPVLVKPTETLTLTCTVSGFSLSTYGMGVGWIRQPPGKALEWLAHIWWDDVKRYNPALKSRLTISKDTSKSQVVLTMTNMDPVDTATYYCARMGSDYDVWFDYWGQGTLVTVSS VL: EIVLTQSPATLSLSPGERATLSCRASKSISKYLAWYQQKPGQAPRLLIYSGSTLQSGIPARFSGSGSGTDFTLTISSLEPEDFAVYYCQQPLDVPYTFGQGTKLEIK" metric_name=Kd result="0.177 nM"
binder="M468 (antibody, V domains shown, anti-IL-13, human IgG1) VH: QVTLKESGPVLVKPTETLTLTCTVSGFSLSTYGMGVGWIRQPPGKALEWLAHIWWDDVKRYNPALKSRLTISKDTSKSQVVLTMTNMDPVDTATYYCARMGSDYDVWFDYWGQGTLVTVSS VL: EIVLTQSPATLSLSPGERATLSCRASKSISKYLAWYQQKPGQAPRLLIYSGSTLQSGIPARFSGSGSGTDFTLTISSLEPEDFAVYYCQQHFWGPYTFGQGTKLEIK" metric_name=Kd result="0.094 nM"
